Reported values of EC50 for individual entries
- TEST_SYSTEM: T1, human Claudin18.2 (human)
- T1 construct: also called CLDN18.2
- EXPERIMENTAL_PROTOCOL: cell ELISA, Claudin18.2-expressing HEK293T cells
Report the value in nM with no unit label.

273F3D4 (antibody, V domains shown, mouse hybridoma mAb) VH: QVQLKESGPGLVAPSQSLSITCTVSGFALTTYGVSWVRQPPGKGLEWLGVIWGDGSTHYHSALISRLSIRKDNSKSQVFLKLNSLQTDDTATYYCAKPGRGNAMDYWGQGTSVTVSS VL: DIVMSQSPSSLTVTAGEKVTMSCKSSQSLLNSGNQKNYLTWYQQKPGQSPKLLIYWASTRESGVPDRFTGSGSGTDFTLTISSMQAEDLAVYYCQNDYIYPLTFGAGTMLELK	1.13
412B6E4 (antibody, V domains shown, mouse hybridoma mAb) VH: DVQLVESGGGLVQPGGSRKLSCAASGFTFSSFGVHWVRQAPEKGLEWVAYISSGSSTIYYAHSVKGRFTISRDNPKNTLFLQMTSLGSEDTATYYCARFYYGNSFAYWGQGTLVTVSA VL: DIVMTQSPSSLTVTAGEKVTMSCKSSQSLLNSGNQKNYLTWYQQKPGQPPKMLIYWASTRESGVPDRFTGSGSGTDFTLTISSVQAEDLAVYYCQNAYTYPLTFGAGTRLELK	33.1

Proceed to the following item.
Q: Using the record for 416F12F3 (antibody, V domains shown, mouse hybridoma mAb) VH: DVQLVESGGGLVQPGGSRKLSCAASGFTFSSFGMHWVRQAPEKGLEWVAYISSGSSTIYYAHSVKGRFTISRDNPKNTLFLQMTSLGSEDTAMYYCARFYYGNSFAYWGQGTLVTVSA VL: DIVMTQSPSSLTVTAGEKVTLSCKSSQSLLNSGNQKNYLTWYQQKPGQPPKMLIYWASTRESGVPDRFTGSGSGTDFTLTISSVQAEDLAVYYCQNAYTYPLTFGAGTRLELK , report its EC50.
Ans: 14.7
